Biological target: T1, HCV Core1-169 recombinant antigen (hepatitis C virus (HCV-1), UniProt P26664 1-169)
T1 sequence: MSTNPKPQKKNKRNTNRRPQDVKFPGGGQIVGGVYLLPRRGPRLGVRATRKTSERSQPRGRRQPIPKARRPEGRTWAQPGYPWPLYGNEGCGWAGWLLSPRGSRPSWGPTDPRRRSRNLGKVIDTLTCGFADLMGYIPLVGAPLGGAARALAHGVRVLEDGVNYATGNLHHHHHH
Assay: sandwich EIA, 25 ng/ml core1-169; capture mAb C11-9
One threshold, 2 OD492, splits the recorded OD492 nm values: lower ones are 1.0, equal or higher ones are 0.0.

See these solved cases before continuing.
HCV 208B-1096 monoclonal antibody (antibody, V domains shown) VH: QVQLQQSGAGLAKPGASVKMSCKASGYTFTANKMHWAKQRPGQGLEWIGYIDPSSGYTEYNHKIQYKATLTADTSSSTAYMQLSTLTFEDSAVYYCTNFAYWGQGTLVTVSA VL: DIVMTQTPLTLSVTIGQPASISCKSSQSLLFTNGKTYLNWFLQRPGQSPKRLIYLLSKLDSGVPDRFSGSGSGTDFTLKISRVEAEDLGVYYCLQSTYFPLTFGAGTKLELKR
1.0
HCV 208A-293 monoclonal antibody (antibody, V domains shown) VH: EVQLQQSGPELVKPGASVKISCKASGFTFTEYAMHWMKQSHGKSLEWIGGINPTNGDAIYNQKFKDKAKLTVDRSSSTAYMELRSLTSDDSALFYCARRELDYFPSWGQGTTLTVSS VL: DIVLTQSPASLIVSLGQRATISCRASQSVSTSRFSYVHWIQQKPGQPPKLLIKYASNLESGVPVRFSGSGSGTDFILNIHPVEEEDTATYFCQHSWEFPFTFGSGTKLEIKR
0.0
HCV 208A-692 monoclonal antibody (antibody, V domains shown) VH: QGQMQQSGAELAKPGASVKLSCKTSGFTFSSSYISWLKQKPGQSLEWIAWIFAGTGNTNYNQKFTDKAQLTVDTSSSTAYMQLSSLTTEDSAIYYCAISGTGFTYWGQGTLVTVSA VL: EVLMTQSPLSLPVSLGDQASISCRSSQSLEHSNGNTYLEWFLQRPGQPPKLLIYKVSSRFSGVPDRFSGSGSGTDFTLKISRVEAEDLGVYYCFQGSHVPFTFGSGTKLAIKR
0.0

Find out if reported OD492 nm for 208B-612-226 monoclonal antibody (antibody, V domains shown) VH: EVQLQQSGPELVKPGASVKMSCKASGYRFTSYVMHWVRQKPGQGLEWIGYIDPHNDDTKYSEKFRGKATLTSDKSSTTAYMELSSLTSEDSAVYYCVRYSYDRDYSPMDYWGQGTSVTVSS VL: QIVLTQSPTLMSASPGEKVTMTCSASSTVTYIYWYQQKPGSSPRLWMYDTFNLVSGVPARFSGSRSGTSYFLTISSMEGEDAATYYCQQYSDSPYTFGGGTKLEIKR is less than 2 OD492
1.0

Strictly below 2 OD492 in OD492 nm? 208B-395-334 monoclonal antibody (antibody, V domains shown) VH: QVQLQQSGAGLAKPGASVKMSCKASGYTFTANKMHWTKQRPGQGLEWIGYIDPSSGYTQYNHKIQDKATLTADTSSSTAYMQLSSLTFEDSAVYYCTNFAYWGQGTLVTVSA VL: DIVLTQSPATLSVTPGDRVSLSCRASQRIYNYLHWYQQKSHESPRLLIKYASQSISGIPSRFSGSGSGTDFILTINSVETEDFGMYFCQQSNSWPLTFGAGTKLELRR
1.0

Confirm or reject: OD492 nm of HCV 208A-557 monoclonal antibody (antibody, V domains shown) VH: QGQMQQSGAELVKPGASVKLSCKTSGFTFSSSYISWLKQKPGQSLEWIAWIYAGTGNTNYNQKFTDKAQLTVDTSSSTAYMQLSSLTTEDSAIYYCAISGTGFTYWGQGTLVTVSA VL: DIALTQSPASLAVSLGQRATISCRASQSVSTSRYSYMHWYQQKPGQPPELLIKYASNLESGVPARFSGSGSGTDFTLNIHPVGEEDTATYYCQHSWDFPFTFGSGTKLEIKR lies strictly below 2 OD492
1.0

Is the reported OD492 nm for 208A-207-271 monoclonal antibody (antibody, V domains shown) VH: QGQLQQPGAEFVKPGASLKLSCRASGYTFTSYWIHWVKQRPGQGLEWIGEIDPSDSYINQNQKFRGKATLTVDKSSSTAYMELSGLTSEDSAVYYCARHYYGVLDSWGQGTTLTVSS VL: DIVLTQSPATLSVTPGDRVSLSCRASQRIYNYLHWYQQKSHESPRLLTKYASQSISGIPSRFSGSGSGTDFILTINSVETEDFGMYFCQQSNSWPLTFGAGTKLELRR strictly below 2 OD492?
0.0
